Measured values drawn from ChEMBL document CHEMBL1133596 for this set.

Test system: FM3A
Experiment: Evaluated for the inhibition of tumor cell growth of murine mammary carcinoma malignant tumor cell line (FM3A/0)
Format: functional, cell-based
Settings: Mus musculus
measurementType: IC50

Exercise: IC50 lookup needed for O=C1O/C(=C\Cn2cc(F)c(=O)[nH]c2=O)C(O)=C1O , thanks.
Key: 0.78 µg/mL

Exercise: Then this compound: O=C1OC(C(O)Cn2cc(F)c(=O)[nH]c2=O)C(OCc2ccccc2)=C1OCc1ccccc1 (centres undefined)
Key: 52.2 µg/mL

Exercise: Then this compound: O=c1[nH]cc(F)c(=O)[nH]1
Key: 0.02 µg/mL

Exercise: Then this compound: O=C1O/C(=C\Cn2ccc(=O)[nH]c2=O)C(O)=C1O
Key: > 200 µg/mL

====

System: FM3A
Test: Evaluated for the inhibition of tumor cell growth of murine mammary carcinoma malignant tumor cell line (FM3A/0)
Format: functional, cell-based
Conditions: Mus musculus
measurementType: IC50 (µg/mL)
Answer format: numeric, µg/mL implied, no suffix.

Exercise: IC50 lookup needed for O=C1OC(C(O)Cn2cc(C(F)(F)F)c(=O)[nH]c2=O)C(OCc2ccccc2)=C1OCc1ccccc1 (stereo not given) , thanks.
Key: 38.4

Exercise: Then this molecule: O=C1OC(C(O)Cn2ccc(=O)[nH]c2=O)C(OCc2ccccc2)=C1OCc1ccccc1 (stereo not given)
Key: 74.1

Exercise: Then this molecule: O=C1O/C(=C\Cn2cc(C(F)(F)F)c(=O)[nH]c2=O)C(O)=C1O
Key: 162

Exercise: Then this molecule: O=c1[nH]c(=O)n([C@H]2C[C@H](O)[C@@H](CO)O2)cc1F [FLOXURIDINE]
Key: 0.0008
